Data origin, for the record: patent US11613556B2

// reported Emax per item
system tested: GluN2B glutamate receptors expressed in mammalian cells (Homo sapiens (Human), UniProt Q05586+Q13224)
Sequence (Q13224 27-1484, other chains not shown): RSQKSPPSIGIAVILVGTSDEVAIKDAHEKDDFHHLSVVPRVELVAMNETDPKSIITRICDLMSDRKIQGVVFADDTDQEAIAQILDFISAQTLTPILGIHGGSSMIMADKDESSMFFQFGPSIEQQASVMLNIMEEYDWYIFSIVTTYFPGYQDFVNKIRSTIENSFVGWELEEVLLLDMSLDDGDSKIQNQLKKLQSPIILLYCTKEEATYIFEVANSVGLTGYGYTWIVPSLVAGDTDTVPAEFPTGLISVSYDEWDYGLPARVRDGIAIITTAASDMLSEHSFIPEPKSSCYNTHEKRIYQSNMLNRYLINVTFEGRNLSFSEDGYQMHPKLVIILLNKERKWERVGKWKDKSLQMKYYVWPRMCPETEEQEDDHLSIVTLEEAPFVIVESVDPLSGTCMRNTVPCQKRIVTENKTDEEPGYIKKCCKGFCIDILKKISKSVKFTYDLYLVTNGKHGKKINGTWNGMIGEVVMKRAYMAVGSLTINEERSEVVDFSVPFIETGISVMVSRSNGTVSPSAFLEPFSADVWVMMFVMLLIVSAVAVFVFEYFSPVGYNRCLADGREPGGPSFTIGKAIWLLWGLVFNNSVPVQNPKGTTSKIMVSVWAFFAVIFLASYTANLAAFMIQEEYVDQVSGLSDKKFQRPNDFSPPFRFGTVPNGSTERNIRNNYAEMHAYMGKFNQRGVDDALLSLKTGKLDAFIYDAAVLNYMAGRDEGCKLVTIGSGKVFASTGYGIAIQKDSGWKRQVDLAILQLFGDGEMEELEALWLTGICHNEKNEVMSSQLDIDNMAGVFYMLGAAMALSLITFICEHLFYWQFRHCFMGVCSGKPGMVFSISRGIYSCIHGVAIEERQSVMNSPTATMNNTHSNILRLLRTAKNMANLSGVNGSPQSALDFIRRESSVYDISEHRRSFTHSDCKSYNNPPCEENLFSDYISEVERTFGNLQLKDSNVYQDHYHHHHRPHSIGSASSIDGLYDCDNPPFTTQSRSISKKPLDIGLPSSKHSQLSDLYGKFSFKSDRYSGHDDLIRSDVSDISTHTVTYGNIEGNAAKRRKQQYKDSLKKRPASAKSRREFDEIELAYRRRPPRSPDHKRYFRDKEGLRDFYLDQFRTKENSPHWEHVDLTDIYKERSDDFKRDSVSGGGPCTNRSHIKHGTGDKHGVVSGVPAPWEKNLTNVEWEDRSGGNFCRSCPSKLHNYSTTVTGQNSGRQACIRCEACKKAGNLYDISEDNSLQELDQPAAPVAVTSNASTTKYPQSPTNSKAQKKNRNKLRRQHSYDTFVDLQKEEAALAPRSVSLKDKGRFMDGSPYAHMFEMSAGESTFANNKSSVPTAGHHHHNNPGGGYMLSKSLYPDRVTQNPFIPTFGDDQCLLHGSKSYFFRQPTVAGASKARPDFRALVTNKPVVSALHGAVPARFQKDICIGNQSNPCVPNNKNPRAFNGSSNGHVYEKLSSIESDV
assay protocol: Whole-cell patch clamp of mammalian cells (Ionworks Barracuda), positive allosteric modulation, GluN2B
Format: cell-based
details: peak current amplitude; co-application with EC20 L-glutamate and 30 μM glycine; read-out: GluN2B PCA EMax (%)

# example entries with known answers
smiles_string=CC[C@]1(O)CC[C@@]2(C)C(=CC[C@H]3[C@@H]4CC[C@H]([C@H](C)[C@H](O)CCC5CC5)[C@@]4(C)CC[C@@H]32)C1 value_reported="< 100%"
smiles_string=CC[C@]1(O)CC[C@@]2(C)[C@H](CC[C@@H]3[C@@H]2CC[C@]2(C)[C@@H]([C@H](C)[C@@H](O)CC4CCCC4)CC[C@@H]32)C1 value_reported="< 100%"
smiles_string=CCC[C@H](O)[C@@H](C)[C@H]1CC[C@H]2[C@@H]3CC[C@@H]4C[C@](O)(CC)CC[C@]4(C)[C@H]3CC[C@]12C value_reported="100 to 500%"
smiles_string=CC(C)CC[C@@H](O)[C@@H](C)[C@H]1CC[C@H]2[C@@H]3CC[C@@H]4C[C@@](C)(O)CC[C@]4(C)[C@H]3CC[C@]12C value_reported="< 100%"
smiles_string=CC[C@]1(O)CC[C@H]2[C@@H](CC[C@@H]3[C@@H]2CC[C@]2(C)[C@@H]([C@H](C)[C@@H](O)CCC(C)C)CC[C@@H]32)C1 value_reported="100 to 500%"

GET /value?item= `CC(C)CC[C@@H](O)[C@@H](C)[C@H]1CC[C@H]2[C@@H]3CC=C4C[C@@](C)(O)CC[C@]4(C)[C@H]3CC[C@]12C` &field=Emax returns 100 to 500%

Just so you know, measured Emax for `CCC[C@H](O)[C@@H](C)[C@H]1CC[C@H]2[C@@H]3CC=C4C[C@](O)(CC)CC[C@]4(C)[C@H]3CC[C@]12C` came out at < 100%
